Reported pKi values for a set of compounds
Target: glucocorticoid receptor (GR) (Homo sapiens, UniProt P04150)
Construct: endogenous in cells; host or cells: HeLa (ATCC) cell lysate supernatant
Test: Ligand binding assay (GR BIND), 3H-dexamethasone displacement, HeLa cell lysate
Conditions: Table 1; HeLa cell lysate, 3H-DEX
pKi: −log10 of the molar value.

COMPOUND: C[C@]12Cc3cnn(-c4ccc(F)cc4)c3C=C1CC[C@@]2(O)CCc1cccc(F)c1CNS(=O)(=O)C1CC1
pKi: 9.24
//
COMPOUND: CCCNC(=O)c1c(F)cccc1CC[C@]1(O)CCC2=Cc3c(cnn3-c3ccc(F)cc3)C[C@@]21C
pKi: 9.09
//
COMPOUND: CC(C(N)=O)c1ccccc1CC[C@]1(O)CCC2=Cc3c(cnn3-c3ccc(F)cc3)C[C@@]21C (single isomer, unassigned)
pKi: 8.74
//
COMPOUND: C[C@]12Cc3cnn(-c4ccc(Cl)cc4)c3C=C1CC[C@@]2(O)CCc1cccc(F)c1C(N)=O
pKi: 8.71
//
COMPOUND: C[C@]12Cc3cnn(-c4ccc(F)cc4)c3C=C1CC[C@@]2(O)CCc1cccc(Cl)c1CC(N)=O
pKi: 8.85
//
COMPOUND: C[C@]12Cc3cnn(-c4ccc(F)cc4)c3C=C1CC[C@@]2(O)CCc1ccccc1C(=O)N1CCCC1
pKi: 7.94
//
COMPOUND: C[C@]12Cc3cnn(-c4ccc(F)cc4)c3C=C1CC[C@@]2(O)CCc1cccc(F)c1[C@H](N)C(F)(F)F
pKi: 8.76

----------
Each record here notes measured pEC50.
Molecular target: human GR (Homo sapiens, UniProt P04150)
Experiment: Transrepression Assay (GITAR), TNFα-β-lactamase reporter gene in U937 cells
Type: cell-based
Set-up: U937 cells contain an endogenous glucocorticoid receptor (GR); endogenous in cells; host or cells: U937 cells stably transfected with the TNF-α promoter/β-lactamase reporter only
Settings: Table 1; U937 cells; IP = inflection point; read-out: Transrepression U937 Cells GITAR IP
Source text: Transrepression Assay (GITAR) This assay assesses the ability of test compounds to control transcription from the TNFα-β-lactamase reporter gene in U937 cells, a human myelomonocytic leukemia cell line that naturally expresses the human GR. The assay measures compound dependent-repression of the TNFa promoter linked to a reporter gene. The human U937 cells that had been stably transfected with the TNF-α promoter driving β-lactamase are used for this assay. […]
pEC50: −log10 of the molar value.

COMPOUND: CNC(=O)Cc1ccccc1CC[C@]1(O)CCC2=Cc3c(cnn3-c3ccc(F)cc3)C[C@@]21C
pEC50: 6.58

COMPOUND: CC(C(N)=O)c1ccccc1CC[C@]1(O)CCC2=Cc3c(cnn3-c3ccc(F)cc3)C[C@@]21C (single isomer, unassigned)
pEC50: 6.54

COMPOUND: CC(=O)Nc1ccccc1CC[C@]1(O)CCC2=Cc3c(cnn3-c3ccc(F)cc3)C[C@@]21C
pEC50: 6.71

COMPOUND: CCNC(=O)c1ccccc1CC[C@]1(O)CCC2=Cc3c(cnn3-c3ccc(F)c(F)c3)C[C@@]21C
pEC50: 6.71

COMPOUND: C[C@]12Cc3cnn(-c4ccc(F)cc4)c3C=C1CC[C@@]2(O)CCc1cccc(F)c1CC(N)=O
pEC50: 7.06

COMPOUND: CC(C)CNC(=O)c1ccccc1CC[C@]1(O)CCC2=Cc3c(cnn3-c3ccc(F)cc3)C[C@@]21C
pEC50: 6.72

COMPOUND: C[C@]12Cc3cnn(-c4ccc(F)cc4)c3C=C1CC[C@@]2(O)CCc1ccccc1NS(=O)(=O)C1CC1
pEC50: 6.62

----------
We begin with a simple list: items and their reported EC50.
Target: human GR (Homo sapiens)
Sequence (P04150 1-777): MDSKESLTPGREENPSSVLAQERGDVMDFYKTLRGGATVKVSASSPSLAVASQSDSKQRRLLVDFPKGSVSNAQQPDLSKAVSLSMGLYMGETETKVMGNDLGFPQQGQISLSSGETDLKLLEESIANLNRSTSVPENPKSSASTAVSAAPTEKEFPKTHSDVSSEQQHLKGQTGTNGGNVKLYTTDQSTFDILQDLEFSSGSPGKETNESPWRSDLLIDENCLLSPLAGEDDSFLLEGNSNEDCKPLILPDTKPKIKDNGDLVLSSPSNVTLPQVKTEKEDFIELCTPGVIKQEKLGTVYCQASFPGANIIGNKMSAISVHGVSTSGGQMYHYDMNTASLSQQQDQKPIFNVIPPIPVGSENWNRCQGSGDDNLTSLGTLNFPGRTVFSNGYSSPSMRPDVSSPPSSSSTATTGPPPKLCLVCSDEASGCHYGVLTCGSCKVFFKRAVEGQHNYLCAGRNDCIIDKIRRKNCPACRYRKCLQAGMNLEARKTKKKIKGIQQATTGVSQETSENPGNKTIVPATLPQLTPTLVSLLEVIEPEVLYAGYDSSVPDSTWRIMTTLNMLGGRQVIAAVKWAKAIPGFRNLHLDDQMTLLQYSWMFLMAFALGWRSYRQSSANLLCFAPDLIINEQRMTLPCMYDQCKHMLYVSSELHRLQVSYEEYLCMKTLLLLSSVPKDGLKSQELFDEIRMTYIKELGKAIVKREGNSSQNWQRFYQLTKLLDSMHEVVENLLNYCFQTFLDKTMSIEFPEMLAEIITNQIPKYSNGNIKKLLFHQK
Experiment: Transrepression Assay (GITAR), TNFα-β-lactamase reporter gene in U937 cells
Assay type: cell-based
Parameters: U937 cells contain an endogenous glucocorticoid receptor (GR); endogenous in cells; host or cells: U937 cells stably transfected with the TNF-α promoter/β-lactamase reporter only
Settings: Table 2; U937 cells; IP = inflection point; read-out: Transactiviation U937 Cells GITAR IP

COMPOUND: C[C@]12Cc3cnn(-c4ccc(F)cc4)c3C=C1CC[C@@]2(O)CCc1ccccc1F [Example 70 WO 2004/075840 A2, reference compound]
TARGET OR TEST SYSTEM: human GR (Homo sapiens)
UNIT NAME: µM
EC50: 0.175
--
COMPOUND: C[C@]12Cc3cnn(-c4ccc(F)cc4)c3C=C1CCC[C@@H]2[C@@H](O)Cc1ccccc1 [Example 22 WO 03/086294 A2, reference compound]
TARGET OR TEST SYSTEM: human GR (Homo sapiens)
UNIT NAME: µM
EC50: 0.327
--
COMPOUND: C[C@]12Cc3cnn(-c4ccc(F)cc4)c3C=C1CC[C@@]2(O)CCc1ccc(F)cc1 [Example 46 WO 2004/075840 A2, reference compound]
TARGET OR TEST SYSTEM: human GR (Homo sapiens)
UNIT NAME: µM
EC50: 0.596
--
COMPOUND: C[C@]12Cc3cnn(-c4ccc(F)cc4)c3C=C1CC[C@@]2(O)CCc1ccccc1 [Example 2 WO 2004/075840 A2, reference compound]
TARGET OR TEST SYSTEM: human GR (Homo sapiens)
UNIT NAME: µM
EC50: 0.204
--
COMPOUND: C[C@]12Cc3cnn(-c4ccc(F)cc4)c3C=C1CC[C@@]2(O)CCc1ccccc1Cl [Example 40 WO 2004/075840 A2, reference compound]
TARGET OR TEST SYSTEM: human GR (Homo sapiens)
UNIT NAME: µM
EC50: 0.212
--
COMPOUND: C[C@]12Cc3cnn(-c4ccc(F)cc4)c3C=C1CCC[C@@]2(O)CCc1ccccc1Cl [Example 41 WO 2004/075840 A2, reference compound]
TARGET OR TEST SYSTEM: human GR (Homo sapiens)
UNIT NAME: µM
EC50: 0.27
--
COMPOUND: COc1ccccc1CC[C@]1(O)CCC2=Cc3c(cnn3-c3ccc(F)cc3)C[C@@]21C [Example 58 WO 2004/075840 A2, reference compound]
TARGET OR TEST SYSTEM: human GR (Homo sapiens)
UNIT NAME: µM
EC50: 0.642

----------
Molecular target: human GR (Homo sapiens)
Assay: Transrepression Assay (GITAR), TNFα-β-lactamase reporter gene in U937 cells
Type: cell-based
Set-up: U937 cells contain an endogenous glucocorticoid receptor (GR); endogenous in cells; host or cells: U937 cells stably transfected with the TNF-α promoter/β-lactamase reporter only
Settings: U-937; Table 2; U937 cells; activity repressed by 100 nM dexamethasone = 100%; read-out: Transactiviation U937 Cells GITAR Emax (%)

MOLECULE: C[C@]12Cc3cnn(-c4ccc(F)cc4)c3C=C1CC[C@@]2(O)CCc1ccccc1F [Example 70 WO 2004/075840 A2, reference compound]
Emax (%): 83
//
MOLECULE: COc1ccccc1CC[C@]1(O)CCC2=Cc3c(cnn3-c3ccc(F)cc3)C[C@@]21C [Example 58 WO 2004/075840 A2, reference compound]
Emax (%): 42
//
MOLECULE: C[C@]12Cc3cnn(-c4ccc(F)cc4)c3C=C1CCC[C@@]2(O)CCc1ccccc1Cl [Example 41 WO 2004/075840 A2, reference compound]
Emax (%): 88
//
MOLECULE: C[C@]12Cc3cnn(-c4ccc(F)cc4)c3C=C1CC[C@@]2(O)CCc1ccccc1Cl [Example 40 WO 2004/075840 A2, reference compound]
Emax (%): 91
//
MOLECULE: C[C@]12Cc3cnn(-c4ccc(F)cc4)c3C=C1CC[C@@]2(O)CCc1ccccc1 [Example 2 WO 2004/075840 A2, reference compound]
Emax (%): 78
//
MOLECULE: C[C@]12Cc3cnn(-c4ccc(F)cc4)c3C=C1CCC[C@@H]2[C@@H](O)Cc1ccccc1 [Example 22 WO 03/086294 A2, reference compound]
Emax (%): 71
//
MOLECULE: C[C@]12Cc3cnn(-c4ccc(F)cc4)c3C=C1CC[C@@]2(O)CCc1ccc(F)cc1 [Example 46 WO 2004/075840 A2, reference compound]
Emax (%): 71
